# Experimental Target: hACE2 (Homo sapiens)
# Construct: purchased Sino Biological
# Sequence (Q9BYF1 18-805): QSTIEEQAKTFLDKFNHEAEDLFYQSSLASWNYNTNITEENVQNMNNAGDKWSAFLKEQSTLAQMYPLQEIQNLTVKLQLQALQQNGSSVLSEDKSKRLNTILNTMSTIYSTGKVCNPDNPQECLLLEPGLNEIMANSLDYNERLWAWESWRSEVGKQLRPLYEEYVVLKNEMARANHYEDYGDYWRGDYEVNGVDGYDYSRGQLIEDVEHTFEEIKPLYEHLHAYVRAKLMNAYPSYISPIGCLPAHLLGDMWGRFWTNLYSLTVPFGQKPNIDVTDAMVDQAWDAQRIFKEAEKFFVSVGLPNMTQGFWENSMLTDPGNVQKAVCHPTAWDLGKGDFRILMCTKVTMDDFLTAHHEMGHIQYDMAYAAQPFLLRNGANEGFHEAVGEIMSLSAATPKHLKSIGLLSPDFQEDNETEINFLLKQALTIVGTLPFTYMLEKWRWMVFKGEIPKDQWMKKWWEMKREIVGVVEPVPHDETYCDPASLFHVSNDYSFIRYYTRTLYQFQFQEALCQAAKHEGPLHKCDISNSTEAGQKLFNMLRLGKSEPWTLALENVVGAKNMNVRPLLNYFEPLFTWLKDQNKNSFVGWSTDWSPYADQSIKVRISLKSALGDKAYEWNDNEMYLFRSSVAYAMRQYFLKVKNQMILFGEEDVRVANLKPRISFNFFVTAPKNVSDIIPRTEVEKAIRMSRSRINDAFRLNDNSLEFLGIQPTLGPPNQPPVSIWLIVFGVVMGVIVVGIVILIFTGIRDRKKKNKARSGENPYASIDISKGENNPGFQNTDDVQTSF
# Procedure Text: Surface plasmon resonance (SPR) binding to immobilized hACE2
Labelling: Kd reported below 40 µM becomes criterion met; at or above becomes criterion not met.

>>> class_name("Cc1cc(OCCCS(C)(=O)=O)cc(C)c1-c1cccc(COc2ccc3c(c2)OC[C@H]3CC(=O)O)c1")
"criterion met"
>>> class_name("COC(=O)C1=CC[C@@]23CC[C@@H]([C@@](C)(/C=C/C=C(\\C)C(=O)O)OC2=O)[C@@]3(OC(C)=O)CC1")
"criterion not met"
>>> class_name("O=S(=O)(O)Oc1ccc(C(c2ccc(OS(=O)(=O)O)cc2)c2ccccn2)cc1 [Sodium Picosulfate]")
"criterion not met"
>>> class_name("CCC(C)(C)C(=O)O[C@H]1C[C@@H](C)C=C2C=C[C@H](C)[C@H](CC[C@@H]3C[C@@H](O)CC(=O)O3)[C@H]21")
"criterion met"
>>> class_name("C[C@@H]1[C@H](O)[C@@H](C)/C=C/C=C/C=C/C=C/C=C/C=C/C=C/[C@H](O[C@@H]2O[C@H](C)[C@@H](O)[C@H](N)[C@@H]2O)C[C@@H]2O[C@](O)(C[C@@H](O)C[C@@H](O)[C@H](O)CC[C@@H](O)C[C@@H](O)CC(=O)O[C@H]1C)C[C@H](O)[C@H]2C(=O)O")
"criterion met"
